- system name: recombinant human GREM1 (hGREM1-His; C-terminal 10His tagged, R&D, #5190-GR) (human) (UniProt O60565)
- Sequence (O60565 other isoform, or with tags, fused parts or gaps limits assumed, form in doubt): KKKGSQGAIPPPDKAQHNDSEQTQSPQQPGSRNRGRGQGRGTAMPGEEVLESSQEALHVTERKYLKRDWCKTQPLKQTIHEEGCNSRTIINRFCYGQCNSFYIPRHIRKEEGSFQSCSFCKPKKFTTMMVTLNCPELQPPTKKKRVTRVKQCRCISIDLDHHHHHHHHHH
- assay text: cell-based or functional assay
measurement type: hGREM1-His Inhibition IC50, M; W-20-17 cell differentiation assay (alkaline phosphatase) (nM)

* H4H6250P (antibody, human IgG4, V domains shown) VH: QVQLVESGGGVVQPGRSLRLSCAASGFTFSNYGMHWVRQAPGKGLEWVAVIWYDGSNKYYADSVKGRFTISRDNSRKTLYLQMNSLRAEDTAIYYCTRDDYGDYDYPFDYWGQGTLVTVSS VL: DIQMTQSPSSLSASVGDRVTITCRASQGIRNDLGWYQQKPGKAPKRLIYAASSLQSGVPSRFSGTGSGTEFTLTISSLQPEDFATYYCLQHNSYPPFTFGPGTKVDIK | 12
* H4H6251P (antibody, human IgG4, V domains shown) VH: QVQLVESGGGVVQPGKSLRLSCAASGFTFSRYGMHWVRQAPGKGLEWVAVIWYDGSNKYYADSVKGRFTISRDNSKNTLYLQMNSLRADDTAMYYCARDDYGDSPGFDFWGQGTLVTVSS VL: EIVMTQSPATLSVSPGERATLSCRASQSVSSNLAWYQQKPGQAPRLLIYDASTRATGIPARFSGTGSGTEFTLTISSLQSEDFALYYCQQYDDWPPWTFGQGTKVEIK | 11
* H4H2889N (antibody, human IgG4, V domains shown) VH: QVQLQESGPGLVKPSETLSLTCTVSGGSISNSYWSWIRQPPGKGLEWIGYIYYSGNTNYNPSLKSRVTISVDTSKNQFSLKLSSVTAADTAVYYCARVNDYSNYDSYYYGMDVWGQGTTVTVSS VL: AIQMTQSPSSLSASVGDRVTITCRASQGIRNDLGWYQQKPGKAPKLLIYAASSLQSGVPSRFSGSGSGTDFTLTISSLQPEDFATYYCLQDYNYPPTFGQGTKVDIK | 5.4

Provenance of the data: patent US20230192831A1
